- assay_overview: in vitro
- assay_context: CC50, Table 9; line Neutral Red (Cytopathic effect/Toxicity)
metric: CC50

## Input Which measured CC50 value corresponds to NC(=O)c1ncn([C@@H]2O[C@H](CO)[C@@H](O)[C@H]2O)n1 [Ribavirin, reference compound] ?
## Output > 1000 µg/mL

----------
- assay_overview: in vitro
- assay_context: CC50, Table 10; line Neutral Red (Cytopathic effect/Toxicity)
metric: CC50

## Input Tell me the measured CC50 of NC(=O)c1ncn([C@@H]2O[C@H](CO)[C@@H](O)[C@H]2O)n1 [Ribavirin, reference compound] , please.
## Output > 1000 µg/mL
